- measured-on: WIZ (Homo sapiens, UniProt O95785+Q96SW2)
- Construct: expressed in transfected cells
- Sequence (O95785 whole entry): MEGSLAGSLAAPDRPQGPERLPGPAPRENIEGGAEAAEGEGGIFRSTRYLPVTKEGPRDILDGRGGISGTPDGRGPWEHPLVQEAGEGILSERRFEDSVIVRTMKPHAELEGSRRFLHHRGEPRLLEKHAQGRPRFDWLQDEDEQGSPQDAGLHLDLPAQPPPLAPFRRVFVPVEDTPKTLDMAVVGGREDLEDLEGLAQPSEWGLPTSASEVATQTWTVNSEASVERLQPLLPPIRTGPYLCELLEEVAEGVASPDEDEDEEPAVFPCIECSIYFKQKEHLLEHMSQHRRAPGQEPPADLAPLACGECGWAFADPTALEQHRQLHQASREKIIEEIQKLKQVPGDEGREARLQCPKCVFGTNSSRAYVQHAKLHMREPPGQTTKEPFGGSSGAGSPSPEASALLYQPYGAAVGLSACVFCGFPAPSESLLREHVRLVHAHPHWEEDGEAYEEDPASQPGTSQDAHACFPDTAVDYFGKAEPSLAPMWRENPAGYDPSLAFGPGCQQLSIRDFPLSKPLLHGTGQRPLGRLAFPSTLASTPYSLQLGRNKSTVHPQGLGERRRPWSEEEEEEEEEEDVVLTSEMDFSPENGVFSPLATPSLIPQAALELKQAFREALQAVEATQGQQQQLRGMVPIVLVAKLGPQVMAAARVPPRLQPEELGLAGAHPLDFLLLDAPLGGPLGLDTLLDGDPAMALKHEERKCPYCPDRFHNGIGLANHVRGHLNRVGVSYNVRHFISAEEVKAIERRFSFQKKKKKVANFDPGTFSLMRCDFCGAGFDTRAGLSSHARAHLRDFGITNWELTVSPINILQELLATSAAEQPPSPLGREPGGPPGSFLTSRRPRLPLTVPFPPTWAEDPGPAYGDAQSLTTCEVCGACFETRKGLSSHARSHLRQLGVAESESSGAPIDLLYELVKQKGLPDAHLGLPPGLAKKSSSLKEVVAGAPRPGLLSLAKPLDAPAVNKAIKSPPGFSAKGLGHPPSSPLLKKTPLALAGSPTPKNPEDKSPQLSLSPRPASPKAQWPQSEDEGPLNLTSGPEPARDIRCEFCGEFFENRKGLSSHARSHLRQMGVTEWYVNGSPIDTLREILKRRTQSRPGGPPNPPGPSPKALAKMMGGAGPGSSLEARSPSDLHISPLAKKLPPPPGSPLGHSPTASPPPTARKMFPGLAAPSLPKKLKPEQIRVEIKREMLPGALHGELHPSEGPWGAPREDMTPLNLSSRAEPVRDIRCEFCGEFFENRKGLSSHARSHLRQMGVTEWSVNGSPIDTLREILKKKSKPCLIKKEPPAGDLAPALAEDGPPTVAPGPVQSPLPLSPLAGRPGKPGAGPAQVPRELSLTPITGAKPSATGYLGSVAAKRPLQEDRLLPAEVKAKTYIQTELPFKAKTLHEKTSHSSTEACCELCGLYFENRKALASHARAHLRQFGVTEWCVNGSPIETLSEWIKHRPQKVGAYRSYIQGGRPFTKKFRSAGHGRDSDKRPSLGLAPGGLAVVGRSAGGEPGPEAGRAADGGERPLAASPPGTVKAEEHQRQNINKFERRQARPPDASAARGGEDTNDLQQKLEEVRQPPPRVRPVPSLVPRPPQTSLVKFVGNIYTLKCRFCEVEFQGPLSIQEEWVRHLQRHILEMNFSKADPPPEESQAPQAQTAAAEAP
- Sequence (Q96SW2 whole entry): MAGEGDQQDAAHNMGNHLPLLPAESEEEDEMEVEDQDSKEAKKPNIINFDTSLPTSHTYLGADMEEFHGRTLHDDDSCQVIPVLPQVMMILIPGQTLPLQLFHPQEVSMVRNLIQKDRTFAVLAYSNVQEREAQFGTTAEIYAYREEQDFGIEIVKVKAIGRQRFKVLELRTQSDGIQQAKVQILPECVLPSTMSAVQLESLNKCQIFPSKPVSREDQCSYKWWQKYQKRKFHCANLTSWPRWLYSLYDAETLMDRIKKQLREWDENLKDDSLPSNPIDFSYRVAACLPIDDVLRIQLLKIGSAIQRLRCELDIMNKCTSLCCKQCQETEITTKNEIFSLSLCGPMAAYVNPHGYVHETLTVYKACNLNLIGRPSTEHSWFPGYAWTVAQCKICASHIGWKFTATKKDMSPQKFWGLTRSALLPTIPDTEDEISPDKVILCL
- Sequence (Q16531 whole entry partner): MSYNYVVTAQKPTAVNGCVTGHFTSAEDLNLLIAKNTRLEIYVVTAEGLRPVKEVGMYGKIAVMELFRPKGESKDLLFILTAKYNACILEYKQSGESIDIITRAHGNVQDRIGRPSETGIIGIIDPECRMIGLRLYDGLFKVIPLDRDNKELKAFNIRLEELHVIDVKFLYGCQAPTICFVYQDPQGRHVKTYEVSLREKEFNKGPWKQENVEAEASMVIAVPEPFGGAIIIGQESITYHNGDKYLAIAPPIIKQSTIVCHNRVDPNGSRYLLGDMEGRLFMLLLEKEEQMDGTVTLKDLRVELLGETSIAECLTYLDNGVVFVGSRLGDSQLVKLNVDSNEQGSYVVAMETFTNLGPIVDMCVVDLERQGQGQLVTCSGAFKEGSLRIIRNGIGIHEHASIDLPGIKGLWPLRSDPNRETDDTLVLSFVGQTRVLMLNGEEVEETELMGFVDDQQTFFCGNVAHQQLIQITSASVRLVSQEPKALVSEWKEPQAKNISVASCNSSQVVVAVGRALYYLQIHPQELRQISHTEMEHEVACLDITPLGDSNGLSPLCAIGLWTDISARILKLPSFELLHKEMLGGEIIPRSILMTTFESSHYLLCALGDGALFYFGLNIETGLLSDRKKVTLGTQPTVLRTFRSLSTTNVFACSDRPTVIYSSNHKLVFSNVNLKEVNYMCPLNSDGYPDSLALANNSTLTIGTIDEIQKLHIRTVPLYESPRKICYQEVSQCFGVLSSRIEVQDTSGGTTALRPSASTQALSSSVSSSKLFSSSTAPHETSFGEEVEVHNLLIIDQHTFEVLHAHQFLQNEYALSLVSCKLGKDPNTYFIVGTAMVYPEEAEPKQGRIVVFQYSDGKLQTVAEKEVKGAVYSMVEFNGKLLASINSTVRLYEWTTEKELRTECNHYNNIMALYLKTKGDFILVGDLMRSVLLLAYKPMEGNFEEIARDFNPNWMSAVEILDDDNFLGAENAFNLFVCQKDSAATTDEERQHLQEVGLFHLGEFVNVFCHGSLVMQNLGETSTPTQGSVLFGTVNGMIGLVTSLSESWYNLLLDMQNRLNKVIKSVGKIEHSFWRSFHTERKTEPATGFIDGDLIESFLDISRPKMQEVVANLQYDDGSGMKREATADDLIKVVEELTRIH
- protocol-text: Quantification of WIZ protein levels in HiBit tag fusion protein assay (293T cells)
- Assay type: cell-based
- experimental-conditions: at 25 uM, 100 − Amax
measured-property: % degradation of WIZ (100 − Amax) (%)
Give the value in % but do not write % after it.

// below: answered compounds
compound: CCN1CC(Oc2ccc3c(c2)CN(C2CCC(=O)NC2=O)C3=O)CC2(CC2)C1 (single isomer, unassigned) [Example 18]
measured-on: WIZ (Homo sapiens, UniProt O95785+Q96SW2)
measured: 38.62
--
compound: CCN1CC(Oc2ccc3c(c2)CN(C2CCC(=O)NC2=O)C3=O)CC2(CC2)C1 (single isomer, unassigned) [Example 19]
measured-on: WIZ (Homo sapiens, UniProt O95785+Q96SW2)
measured: 62.87
--
compound: CC[C@H](C)N1CCC(C)(C)C(Oc2ccc3c(c2)CN(C2CCC(=O)NC2=O)C3=O)C1 (single isomer, unassigned) [Example 51]
measured-on: WIZ (Homo sapiens, UniProt O95785+Q96SW2)
measured: 12.81
--
compound: CCN1C[C@H](C)C[C@@H](Oc2ccc3c(c2)CN(C2CCC(=O)NC2=O)C3=O)C1 (single isomer, unassigned) [Example 76-2]
measured-on: WIZ (Homo sapiens, UniProt O95785+Q96SW2)
measured: 87.18
--
compound: CCN1C[C@H](OC)C[C@@H](Oc2ccc3c(c2)CN(C2CCC(=O)NC2=O)C3=O)C1 (single isomer, unassigned) [Example 65-2]
measured-on: WIZ (Homo sapiens, UniProt O95785+Q96SW2)
measured: 80.33

Ask: Given the entry CC[C@H](C)N1CCC(C)(C)C(Oc2ccc3c(c2)CN(C2CCC(=O)NC2=O)C3=O)C1 (single isomer, unassigned) [Example 50] , what % degradation of WIZ (100 − Amax) was observed with WIZ (Homo sapiens, UniProt O95785+Q96SW2)?
Result: 2.38

----------
- measured-on: WIZ (Homo sapiens, UniProt O95785+Q96SW2)
- Construct: expressed in transfected cells
- protocol-text: Quantification of WIZ protein levels in HiBit tag fusion protein assay (293T cells)
- Format: cell-based
- Parameters: dose or concentration left out as unconfirmed
- experimental-conditions: HEK-293T, read-out: % degradation of WIZ (100 − Amax)
Each item that follows carries a reported Dmax.
Reply with a number, then the unit it belongs to.

compound: CCC[C@H]1CC[C@@H](Oc2ccc3c(c2)CN(C2CCC(=O)NC2=O)C3=O)CN1CC (stereo partly shown)
measured-on: WIZ (Homo sapiens, UniProt O95785+Q96SW2)
measured-property: Dmax
measured: 89.7%
//
compound: CCN1CCCC[C@@H](Oc2ccc3c(c2)CN(C2CCC(=O)NC2=O)C3=O)C1 (stereo partly shown)
measured-on: WIZ (Homo sapiens, UniProt O95785+Q96SW2)
measured-property: Dmax
measured: 67.5%

Ask: Field: Dmax (WIZ (Homo sapiens, UniProt O95785+Q96SW2)). Entry: CCN1CCC2(CC2)[C@@H](Oc2ccc3c(c2)CN(C2CCC(=O)NC2=O)C3=O)C1 (stereo partly shown)
Result: 80%

Ask: GET /values?readout=Dmax&system=WIZ (Homo sapiens, UniProt O95785+Q96SW2)&item= CC1(C)CCC(Oc2ccc3c(c2)CN(C2CCC(=O)NC2=O)C3=O)CN1 (stereo not shown)
Result: 50%

----------
Recorded Dmax for the following compounds
- measured-on: WIZ (Homo sapiens, UniProt O95785+Q96SW2)
- Construct: expressed in transfected cells
- protocol-text: Quantification of WIZ protein levels in HiBit tag fusion protein assay (293T cells)
- Type: cell-based
- Parameters: dose or concentration left out as unconfirmed
- experimental-conditions: HEK-293T, read-out: % degradation of WIZ (100 − Amax)
Give the number; % is assumed, so skip it.

compound: CCN1C[C@H](C)C[C@@H](Oc2ccc3c(c2)CN(C2CCC(=O)NC2=O)C3=O)C1 (mixture of isomers) [Example 75-1]
Dmax [%]: 86.6
--
compound: CCN1CC[C@@H](F)[C@@H](Oc2ccc3c(c2)CN(C2CCC(=O)NC2=O)C3=O)C1 (relative stereo) [Example 57]
Dmax [%]: 16.9
--
compound: CCN1C[C@@H](O)C[C@@H](Oc2ccc3c(c2)CN(C2CCC(=O)NC2=O)C3=O)C1 (mixture of isomers) [Example 47]
Dmax [%]: 22.8

From here, focus on the item given below.
Ask: Could you share which Dmax value was measured for CCN1CC[C@H](F)[C@@H](Oc2ccc3c(c2)CN(C2CCC(=O)NC2=O)C3=O)C1 (relative stereo) [Example 55] ?
Result: 44.9

----------
- measured-on: WIZ (Homo sapiens, UniProt O95785+Q96SW2)
- Construct: expressed in transfected cells
- protocol-text: Quantification of WIZ protein levels in HiBit tag fusion protein assay (293T cells)
- Type: cell-based
- Design: dose or concentration left out as unconfirmed
- experimental-conditions: HEK-293T, read-out: % degradation of WIZ (100 − Amax)
measured-property: Dmax (%)
Unit % implied. Number only.

Field: example entries. Status: answers known.
compound: CCO[C@@H]1C[C@@H](Oc2ccc3c(c2)CN(C2CCC(=O)NC2=O)C3=O)CN(CC)C1 (some centres unmarked)
unit-info: %
measured: 79.5
//
compound: CCN1CC(Oc2ccc3c(c2)CN(C2CCC(=O)NC2=O)C3=O)CCC1(C)C (centres unmarked)
unit-info: %
measured: 79.5
//
compound: CCN1C[C@@H](F)C[C@@H](Oc2ccc3c(c2)CN(C2CCC(=O)NC2=O)C3=O)C1 (some centres unmarked)
unit-info: %
measured: 64.4
//
compound: CCN1CC[C@@H](Oc2ccc3c(c2)CN(C2CCC(=O)NC2=O)C3=O)C1 (some centres unmarked)
unit-info: %
measured: 52.1
//
compound: CCN1C[C@H](OC)C[C@@H](Oc2ccc3c(c2)CN(C2CCC(=O)NC2=O)C3=O)C1 (some centres unmarked)
unit-info: %
measured: 79.5
//
compound: CCN1C[C@H](Oc2ccc3c(c2)CN(C2CCC(=O)NC2=O)C3=O)CC[C@@H]1C (some centres unmarked)
unit-info: %
measured: 88.6
//
compound: CCO[C@@H]1C[C@@H](Oc2ccc3c(c2)CN(C2CCC(=O)NC2=O)C3=O)CN(C2CCC2)C1 (some centres unmarked)
unit-info: %
measured: 62.8

Below: the item to evaluate.
Ask: Which value of Dmax has been reported for CCn1cc(CN2CCC[C@@H](Oc3ccc4c(c3)CN(C3CCC(=O)NC3=O)C4=O)C2)cn1 (some centres unmarked) in the records?
Result: 59.3

----------
- measured-on: WIZ (Homo sapiens, UniProt O95785+Q96SW2)
- Construct: expressed in transfected cells
- protocol-text: Quantification of WIZ protein levels in HiBit tag fusion protein assay (293T cells)
- Assay type: cell-based
- experimental-conditions: HEK-293T; DMSO-normalized, curve-fitted percentage of WIZ-HiBit remaining at 25 uM; read-out: WIZ Amax
remaining activity at 25 µM under 40% gets T, anything at or over 40% gets F.

molecule: CCO[C@H]1C[C@@H](N2CCC[C@@H](Oc3ccc4c(c3)CN(C3CCC(=O)NC3=O)C4=O)C2)C1 (stereo partly shown)
classification: F

molecule: O=C1CCC(N2Cc3cc(O[C@@H]4CCCN(C5CC(F)(F)C5)C4)ccc3C2=O)C(=O)N1 (mixture of isomers)
classification: F

molecule: CNC(=O)N1C[C@H](Oc2ccc3c(c2)CN(C2CCC(=O)NC2=O)C3=O)CC[C@@H]1C (stereo partly shown)
classification: F

molecule: O=C1CCC(N2Cc3cc(O[C@@H]4CCCN(C5CCCC5)C4)ccc3C2=O)C(=O)N1 (stereo partly shown)
classification: T

Ask: is_below(remaining activity at 25 µM, 40%) for CC(C)CN1CCCC[C@@H](Oc2ccc3c(c2)CN(C2CCC(=O)NC2=O)C3=O)C1 (stereo partly shown) ?
Result: T

Ask: Field: below-cutoff. Rule: recorded remaining activity at 25 µM strictly less than 40%. Subject: CCO[C@@H]1C[C@@H](Oc2ccc3c(c2)CN(C2CCC(=O)NC2=O)C3=O)CN(C(C)=O)C1 (stereo partly shown)
Result: F

Ask: For O=C1CCC(N2Cc3cc(O[C@@H]4CCCN(C5CCCCC5)C4)ccc3C2=O)C(=O)N1 (stereo partly shown) , is the recorded remaining activity at 25 µM below the cut-off of 40%?
Result: T

Ask: Given CC(C)N1C[C@H](Oc2ccc3c(c2)CN(C2CCC(=O)NC2=O)C3=O)CC[C@@H]1C (stereo partly shown) , is recorded remaining activity at 25 µM strictly lower than 40%?
Result: T

Ask: Item CC[C@@H](C)N1CCC[C@@H](Oc2ccc3c(c2)CN(C2CCC(=O)NC2=O)C3=O)C1 (stereo partly shown) : remaining activity at 25 µM beneath 40%, strictly?
Result: T

Ask: Criterion: remaining activity at 25 µM strictly below 40%. Is it met by CCCN1CCC[C@@H](Oc2ccc3c(c2)CN(C2CCC(=O)NC2=O)C3=O)C1 (stereo partly shown) ?
Result: T

Ask: Hello, is remaining activity at 25 µM of the following molecule strictly smaller than 40%? CCN1C[C@@H]2C[C@@H]2[C@@H](Oc2ccc3c(c2)CN(C2CCC(=O)NC2=O)C3=O)C1 (single isomer, unassigned)
Result: T
